The reported measurements were obtained from PubChem BioAssay (NCI).

Tested on: IGROV1 ovarian
protocol.summary: NCI-60 one-dose screen, 48 h
condition.notes: 10 µM unless noted
Compounds without any hit were thinned out: in the full panel of roughly 83,000, 20% have a hit. Active and inactive are the calls of the source. The calls were made as follows: active = growth percent below 10; inactive = the rest.
Outcome codes: active, inactive

- COC12C=C/C(=C(/C(=O)OCc3csc(SC)n3)C(=O)CCCCCCCCC3(OC)C=C/C(=C(/C(=O)OCc4cnc(SC)s4)C(=O)CCCCCCCC1)O3)O2 (centres undefined): inactive
- O=C(C[C@]1(O)C(=O)Nc2ccc(Br)cc21)c1ccco1: inactive
- CC1(C)N=C(N)N=C(N)N1c1ccc(S(=O)(=O)Nc2nccs2)cc1: inactive
- C/C(=N\Nc1ccccc1)c1ccc(NC2=CC(=O)c3ccccc3C2=O)cc1: inactive
- COc1cc([C@@H](CCO)C[C@H](C)c2ccc3ccccc3c2)cc(OC)c1OC: inactive
- CS(=O)(=O)Nc1cc(-c2ccc3ncnc(Nc4ccc(OCc5ccccn5)c(Cl)c4)c3c2)cnc1Cl: active
- COc1ccc(C/C(C)=C(\c2ccc(Cl)cc2)c2ccc(OCCN3CCCC3)cc2)cc1: inactive
- Cc1cn(C)cn1: inactive
- N#Cc1c(-c2ccccc2)nc2c(c(-c3ccc(Cl)cc3)nn2-c2ccccc2)c1-c1ccc([N+](=O)[O-])cc1: inactive
